Target: recombinant BACE1 protein (Homo sapiens, UniProt P56817)
Construct: recombinant BACE1 protein in a final concentration of 0.04 μg/mL
Sequence (P56817 46-501): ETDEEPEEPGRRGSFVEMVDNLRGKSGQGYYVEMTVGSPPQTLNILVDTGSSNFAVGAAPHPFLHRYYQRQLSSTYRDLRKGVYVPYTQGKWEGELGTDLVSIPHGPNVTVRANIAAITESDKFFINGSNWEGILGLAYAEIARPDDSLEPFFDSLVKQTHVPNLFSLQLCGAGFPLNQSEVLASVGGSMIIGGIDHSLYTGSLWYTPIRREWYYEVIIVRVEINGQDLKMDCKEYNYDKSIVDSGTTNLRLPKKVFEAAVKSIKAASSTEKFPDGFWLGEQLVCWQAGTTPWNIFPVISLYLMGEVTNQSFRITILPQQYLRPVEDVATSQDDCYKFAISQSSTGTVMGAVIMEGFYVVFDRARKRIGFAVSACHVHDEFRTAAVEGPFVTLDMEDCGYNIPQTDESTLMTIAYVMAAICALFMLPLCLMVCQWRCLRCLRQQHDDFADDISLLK
Test: BACE1 biochemical FRET based assay
Conditions: FRET, pH 5.0, 450 min at room temperature
pIC50: −log10 of the molar value.
recorded_metric: pIC50

CC(C)CCC[C@@H]1OC[C@H]2OC(N)=N[C@](C)(c3cc(NC(=O)c4cnc(OCF)cn4)ccc3F)[C@@H]12 ... 8.90
C[C@]1(c2cc(NC(=O)c3cnc(OCF)cn3)ccc2F)N=C(N)O[C@@H]2CO[C@@H](C(F)F)[C@@H]21 ... 7.62
C[C@]1(c2cc(NC(=O)c3cnc(OCF)cn3)ccc2F)N=C(N)O[C@@H]2CO[C@@H](CCF)[C@@H]21 ... 8.07
C[C@H]1OC[C@H]2[C@@H]1OC(N)=N[C@]2(CF)c1cc(NC(=O)c2cnc(-n3cncn3)cn2)ccc1F ... 8.30
C[C@@H](F)COc1cnc(C(=O)Nc2ccc(F)c([C@@]3(C)N=C(N)O[C@@H]4CO[C@@H](C(F)(F)F)[C@@H]43)c2)cn1 ... 7.18

[P] C[C@]1(c2cc(NC(=O)c3ccc(C#N)cn3)ccc2F)N=C(N)O[C@@H]2CO[C@@H](CCF)[C@@H]21
[Q] CC[C@@H]1OC[C@H]2OC(N)=N[C@](C)(c3cc(NC(=O)c4cnc(OCF)cn4)ccc3F)[C@@H]12
Query :: Returns the identifier with the smallest measured pIC50 among P and Q . I would appreciate it if you answered with the label of your choice.
Result :: Q

[P] C[C@@H]1OC[C@H]2[C@@H]1OC(N)=N[C@]2(CF)c1cc(NC(=O)c2cnc(OCF)cn2)ccc1F
[Q] CC(C)C[C@@H]1OC[C@H]2OC(N)=N[C@](C)(c3cc(NC(=O)c4cnc(OCF)cn4)ccc3F)[C@@H]12
Query :: Returns the identifier with the smallest measured pIC50 among P and Q . I would appreciate it if you answered with the label of your choice.
Result :: P
(P: 7.96, Q: 8.17)

[I] NC1=N[C@](CF)(c2cc(NC(=O)c3cnc(OCF)cn3)ccc2F)[C@H]2[C@H](CC(F)F)OC[C@H]2O1
[II] C[C@]1(c2cc(NC(=O)c3ccc(C#N)cn3)ccc2F)N=C(N)O[C@@H]2CO[C@@H](CC(F)F)[C@@H]21
[III] C[C@]1(c2cc(NC(=O)c3ccc(C#N)cn3)ccc2F)N=C(N)O[C@@H]2CO[C@@H](C(F)(F)F)[C@@H]21
[IV] CC(C)C[C@@H]1OC[C@H]2OC(N)=N[C@](C)(c3cc(NC(=O)c4cnc(OC[C@@H](C)F)cn4)ccc3F)[C@@H]12
[V] Cn1cc([C@@H]2OC[C@H]3OC(N)=N[C@](C)(c4cc(NC(=O)c5cnc(OCF)cn5)ccc4F)[C@H]32)cn1
Query :: Rank by pIC50 (largest to smallest). Lab note: record answer as labels in requested order.
Result :: II, III, I, IV, V

Cited source for all entries: patent US20210261569A1
